# System Name: hcGAS (Homo sapiens, UniProt Q8N884)
# Sequence (Q8N884 whole entry): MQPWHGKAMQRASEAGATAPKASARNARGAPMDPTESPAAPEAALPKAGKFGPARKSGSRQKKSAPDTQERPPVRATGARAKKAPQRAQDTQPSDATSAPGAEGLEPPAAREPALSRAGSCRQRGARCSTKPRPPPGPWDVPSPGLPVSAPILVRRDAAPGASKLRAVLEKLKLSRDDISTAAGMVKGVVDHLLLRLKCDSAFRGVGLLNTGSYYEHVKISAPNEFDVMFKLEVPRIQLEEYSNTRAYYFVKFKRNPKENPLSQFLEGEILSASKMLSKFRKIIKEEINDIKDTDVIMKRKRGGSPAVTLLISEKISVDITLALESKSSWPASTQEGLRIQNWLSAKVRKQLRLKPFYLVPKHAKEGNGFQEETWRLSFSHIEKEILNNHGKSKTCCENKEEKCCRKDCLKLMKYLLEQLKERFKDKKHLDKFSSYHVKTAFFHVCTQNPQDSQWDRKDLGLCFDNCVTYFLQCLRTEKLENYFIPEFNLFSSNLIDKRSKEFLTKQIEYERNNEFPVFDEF
# Assay Protocol: hcGAS Kinase-Glo assay (ATP depletion)
# Assay type: biochemical
# Condition Details: 40 nM hcGAS, 100 μM ATP, 100 μM GTP, 25 nM dsDNA, 3 h incubation
Experimental Readout: IC50

# annotated cases, reported IC50 shown
COc1c(N[C@@H]2CCC[C@@H]2O)cc(C(=O)Nc2nnc(-n3nccc3C)s2)oc1=O [Compound 112]; < 10 nM
COc1c(NCCO)cc(C(=O)Nc2nnc(-n3nccc3C)s2)oc1=O; 30 to 100 nM
COCC(COC)Nc1cc(C(=O)Nc2nnc(-n3nccc3C)s2)oc(=O)c1OC; 10 to 30 nM
COC[C@H](C)Nc1cc(C(=O)Nc2nnc(-n3nccc3C)s2)oc(=O)c1OC; 30 to 100 nM
COc1c(N2CCCC2)cc(C(=O)Nc2nnc(-n3nccc3C)s2)oc1=O; 30 to 100 nM

### Prompt hcGAS (Homo sapiens, UniProt Q8N884) / IC50 / COc1c(N[C@H]2CCC[C@H]2O)cc(C(=O)Nc2nnc(-c3c(Cl)ccn3C)s2)oc1=O (racemic) : value?
### Response < 10 nM

### Prompt Another compound: COc1c(NCCN)cc(C(=O)Nc2nnc(-n3nccc3C)s2)oc1=O
### Response ≥ 100 nM

### Prompt Another compound: COc1c(N[C@H]2C[C@@H](OC)C2)cc(C(=O)Nc2nnc(-n3nccc3C)s2)oc1=O
### Response 30 to 100 nM

### Prompt Another compound: COc1c(NC23CC(C2)C3)cc(C(=O)Nc2nnc(-c3c(Cl)ccn3C)s2)oc1=O
### Response < 10 nM

### Prompt Another compound: COc1c(N2CC[C@@H](O)C2)cc(C(=O)Nc2nnc(-n3nccc3C)s2)oc1=O
### Response 10 to 30 nM

### Prompt Another compound: COc1c(N[C@@H]2CCOC2)cc(C(=O)Nc2nnc(-n3nccc3C)s2)oc1=O
### Response 30 to 100 nM

### Prompt Another compound: COc1c(N[C@H]2C[C@@H](O)C2)cc(C(=O)Nc2nnc(-n3nccc3C)s2)oc1=O
### Response 30 to 100 nM

### Prompt Another compound: COc1c(N[C@H]2C[C@H](O)C2)cc(C(=O)Nc2nnc(-n3nccc3C)s2)oc1=O
### Response 30 to 100 nM

### Prompt Another compound: COc1c(NC23CC(C#N)(C2)C3)cc(C(=O)Nc2nnc(-n3nccc3C)s2)oc1=O
### Response 10 to 30 nM

### Prompt Another compound: COc1c(N[C@@H]2CC[C@H]2OC)cc(C(=O)Nc2nnc(-n3nccc3C)s2)oc1=O (racemic)
### Response 10 to 30 nM

### Prompt Another compound: COc1c(N[C@H]2CC[C@H](OC)CC2)cc(C(=O)Nc2nnc(-n3nccc3C)s2)oc1=O
### Response 10 to 30 nM

###

The following compounds are listed with their measured IC50 values.
# System Name: hcGAS (Homo sapiens, UniProt Q8N884)
# Assay Protocol: hcGAS Kinase-Glo assay (ATP depletion)
# Assay type: biochemical
# Condition Details: 40 nM hcGAS, 100 μM ATP, 100 μM GTP, 25 nM dsDNA, 3 h incubation

# annotated cases, reported IC50 shown
COc1c(N[C@H]2CCC[C@@H]2O)cc(C(=O)Nc2nnc(-n3nccc3C)s2)oc1=O (racemic) [Rac-15]; 30 to 100 nM
COc1c(N[C@H]2CCCC[C@H]2O)cc(C(=O)Nc2nnc(-n3nccc3C)s2)oc1=O (racemic) [Rac-189]; 10 to 30 nM
COc1c(N2CCC(OC)CC2)cc(C(=O)Nc2nnc(-n3nccc3C)s2)oc1=O [Compound 19]; 10 to 30 nM
COC[C@@H](C)Nc1cc(C(=O)Nc2nnc(-n3nccc3C)s2)oc(=O)c1OC [Compound 121]; 10 to 30 nM
COc1c(NC2CC2)cc(C(=O)Nc2nnc(-n3nccc3C)s2)oc1=O [Compound 180]; 30 to 100 nM
COc1c(N[C@H]2COC[C@H]2O)cc(C(=O)Nc2nnc(-n3nccc3C)s2)oc1=O [Compound 113]; 10 to 30 nM

Field: next compound
### Prompt So what's the measured IC50 for this one? COCCNc1cc(C(=O)Nc2nnc(-c3sncc3Cl)s2)oc(=O)c1OC [Compound 139]
### Response 30 to 100 nM
